From: paper PMC7946228

- Tested on: SW872 liposarcoma cell line
- assay.details: CellTiter-Glo viability, GR50, 72h
- Type: cell-based, human
- test.conditions: Homo sapiens, SW872; SW 872, 72h; read-out: Half maximum effective concentration corrected for cell growth (GR50)
- Experimental: Cell viability was measured using the CellTiter-Glo Luminescent Cell Viability Assay (Promega, Wisconsin, United States). For each experiment the same cell numbers were seeded as for the proliferation experiments. […] After 72h of drug or vehicle control treatment levels of ATP were measured with CellTiter-Glo. […] The calculated GR50 metric is equivalent to the IC50 metric but takes into account the growth rate of cells. […]
observation.type: IC50 (nM)

[[record]]
compound = "CC(C)[C@]12O[C@H]1[C@@H]1O[C@]13[C@]1(O[C@H]1C[C@H]1C4=C(CC[C@@]13C)C(=O)OC4)[C@@H]2O [Triptolide]"
data_value = 2


a. COc1ncc(-c2ccc3nccc(-c4ccnnc4)c3c2)cc1NS(=O)(=O)c1ccc(F)cc1F [GSK2126458]
b. COCCn1c2c([n+](Cc3cnccn3)c1C)C(=O)c1ccccc1C2=O [YM155]
c. O=C(/C=C/c1cccnc1)NCCCCC1CCN(C(=O)c2ccccc2)CC1 [APO866]
d. Cn1cc(CNCC2CCN(c3ncc(C(=O)NO)cn3)CC2)c2ccccc21 [JNJ-26481585]
Rank ascending by IC50. The labels, placed in the requested order, form the answer.
b, c, d, a

* * *

- System: T1000 liposarcoma cell line
- assay.details: CellTiter-Glo viability, GR50, 72h
- Type: cell-based, human
- test.conditions: T1000, 72h; read-out: Half maximum effective concentration corrected for cell growth (GR50)
observation.type: pIC50
pIC50 here: minus log base 10 of the concentration, concentration in moles per litre.

Tell me the measured pIC50 of CC(C)C[C@H](NC(=O)CNC(=O)c1cc(Cl)ccc1Cl)B1OC(=O)C(CC(=O)O)(CC(=O)O)O1 [MLN9708] , please.
6.33

* * *

- System: T449 liposarcoma cell line
- assay.details: CellTiter-Glo viability, GR50, 72h
- Type: cell-based, human
- test.conditions: T449, 72h; read-out: Half maximum effective concentration corrected for cell growth (GR50)
observation.type: pIC50
pIC50 here: minus log base 10 of the concentration, concentration in moles per litre.

Tell me the measured pIC50 of CC(C)C[C@H](NC(=O)CNC(=O)c1cc(Cl)ccc1Cl)B1OC(=O)C(CC(=O)O)(CC(=O)O)O1 , please.
5.99

* * *

- Test system: FU-DDLS-1 liposarcoma cell line
- assay.details: CellTiter-Glo viability, GR50, 72h
- Format: cell-based, human
- test.conditions: FU-DDL S-1, 72h; read-out: Half maximum effective concentration corrected for cell growth (GR50)
observation.type: pIC50
pIC50 here: minus log base 10 of the concentration, concentration in moles per litre.

Tell me the measured pIC50 of CC(C)C[C@H](NC(=O)CNC(=O)c1cc(Cl)ccc1Cl)B1OC(=O)C(CC(=O)O)(CC(=O)O)O1 [MLN9708] , please.
6.20

* * *

- System: liposarcoma cell lines
- assay.details: Cell cycle analysis of non-apoptotic cells (propidium iodide)
- Format: cell-based, human
- test.conditions: growth arresting concentration, non-apoptotic fraction
observation.type: cell cycle phase in which cells are blocked

[[record]]
test_smiles = "COCCn1c2c([n+](Cc3cnccn3)c1C)C(=O)c1ccccc1C2=O"
target_or_system = "liposarcoma cell lines"
data_value = "less specific arrest"

[[record]]
test_smiles = "O=C(/C=C/c1cccnc1)NCCCCC1CCN(C(=O)c2ccccc2)CC1"
target_or_system = "liposarcoma cell lines"
data_value = "less specific arrest"

[[record]]
test_smiles = "CC(C)C[C@H](NC(=O)CNC(=O)c1cc(Cl)ccc1Cl)B1OC(=O)C(CC(=O)O)(CC(=O)O)O1"
target_or_system = "liposarcoma cell lines"
data_value = "less specific arrest"

